Biological target: T1, recombinant RSV protein G, G(B): residues 66-292 of strain 18537 (human respiratory syncytial virus …, UniProt P20896 66-292)
T1 construct: also called soluble recombinant G protein; recombinant protein G
T1 sequence: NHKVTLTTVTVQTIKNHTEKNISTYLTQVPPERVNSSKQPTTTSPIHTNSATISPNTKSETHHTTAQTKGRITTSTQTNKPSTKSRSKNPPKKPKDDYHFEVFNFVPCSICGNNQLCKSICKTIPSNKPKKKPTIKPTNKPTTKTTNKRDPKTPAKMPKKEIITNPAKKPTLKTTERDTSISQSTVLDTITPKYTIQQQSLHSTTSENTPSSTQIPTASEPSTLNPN
Assay: SPR Biacore 3000, Fab over amine-coupled recombinant protein G
metric: t1/2 (h)
Your answer is read as h, so omit the unit and give the number.

For Fab fragment of antibody 859 (Fab, also called Fab clone 859) VH: QVQLVESGGGVVQPGRSLRLSCAVSGSSFSKYGIHWVRQAPGKGLEWVAVISYDGSKKYFTDSVKGRFTIARDNSQNTVFLQMNSLRAEDTAVYYCATGGGVNVTSWSDVEHSSSLGYWGLGTLVTVSS light: DIQMTQSPSSLSASVGDRVTITCRASQGIRNYLAWYQQKPGKVPKLLVFAASTLQSGVPSRFSGSGSGTDFTLTISSLQPEDVATYYCQRYNSAPLTFGGGTKVEIKRTVAAPSVFIFPPSDEQLKSGTASVVCLLNNFYPREAKVQWKVDNALQSGNSQESVTEQDSKDSTYSLSSTLTLSKADYEKHKVYACEVTHQGLSSPVTKSFNRGEC the binder record lists t1/2 as 4.17
